Experiment: chemical genetic growth profiling, strain panel (AID 1159580);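 further: tested at 20 µM; growth read once vehicle control cultures reached saturation at 30 °C; 1 = growth at the plate median or of vehicle wells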
Settings: S. cerevisiae deletion strains, growth OD, locus YGL167C, strain pmr1, stronger effect = lower value
The campaign covered roughly 5,500 compounds. About 2,000 (36%) were called active. Another 18% or so got no clear call; they are omitted. The list shows a part of the results.
Recorded normalized growth, one value per entry.
Respond numerically, and do not add a unit to the figure.

For the molecule shown here, CC(=O)O[C@H]1CC[C@@]2(C)C(CC[C@]3(C)C2CC=C2C4CC(C)(C)CC[C@]4(C)CC[C@]23C)C1(C)C (stereo partly drawn) , give the reported normalized growth.
0.975

For the molecule shown here, CCN1C[C@]2(OC(=O)c3ccccc3NC(C)=O)CCC(OC)[C@]34C1[C@H](CC23)[C@@]1(O)CC(OC)[C@H]2CC4C1(O)[C@H]2OC (stereo partly drawn) , give the reported normalized growth.
0.974

====

Experiment: chemical genetic growth profiling, strain panel (AID 1159580);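 further: tested at 20 µM; growth read once vehicle control cultures reached saturation at 30 °C; 1 = growth at the plate median or of vehicle wells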
Conditions: S. cerevisiae deletion strains, growth OD, locus YJL128C, strain PBS2, stronger effect = lower value
Out of some 5,500 compounds screened, about 2,000 (36%) were called active. Roughly 18% stayed inconclusive and do not appear here. The list shows a part of the results.
Lab note: cut-off is 0.9. Strictly less in normalized growth is Y. Exactly 0.9 or more is N.

Worked examples follow.
Nc1ccccc1C(=O)N/N=C\c1cc(Br)ccc1O; N
O=C(N/N=C\c1cc(Br)ccc1O)c1ccccc1Oc1ccccc1; N
C=CCc1c(CCC)nc(-c2ccccn2)[nH]c1=O; N
N#Cc1c2ccccc2nc2ccccc12; Y
O=S(=O)(NC(=S)Nc1ccc(Cl)c(Cl)c1)c1ccccc1; N

Item CCCc1nc(-c2ccccn2)[nH]c(=O)c1CC1CC1 : normalized growth beneath 0.9, strictly?
N

Item O=C(NCCc1ccncc1)c1ccc(Cl)c(Cl)c1 : normalized growth beneath 0.9, strictly?
N

Item S=C(NNC(=S)NC1CC2C=CC1C2)Nc1ccc(Br)c(Cl)c1 (configuration not stated) : normalized growth beneath 0.9, strictly?
N

Item O=[N+]([O-])c1cnc(Sc2nnc(SCc3cccc(C(F)(F)F)c3)s2)s1 : normalized growth beneath 0.9, strictly?
Y

Item CCOC(=O)c1cc(CC)sc1NC(=O)c1ccc([N+](=O)[O-])o1 : normalized growth beneath 0.9, strictly?
N

====

Test: chemical genetic growth profiling, strain panel (AID 1159580);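 further: tested at 20 µM; growth read once vehicle control cultures reached saturation at 30 °C; 1 = growth at the plate median or of vehicle wells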
Conditions: S. cerevisiae deletion strains, growth OD, locus YIL066C, strain RNR3
About 2,000 (36%) of roughly 5,500 compounds were called active. Inconclusive results (about 18%) are left out. No stated cut-off is given here; in the data, active means normalized growth mostly below about 0.91 (no sharp cut-off); inconclusive means no clear call, values can overlap the other calls; inactive means mostly above about 0.92. The list shows a part of the results.
Permitted responses: active, inactive

Worked examples follow.
O=C(COc1ccc(Cl)cc1)N1CCN(Cc2ccc3c(c2)OCO3)CC1; inactive
C[C@@H]1CC[C@]2(C(=O)O)CC[C@]3(C)C(=CCC4[C@@]5(C)CC[C@H](O)C(C)(C)C5CC[C@]43C)C2[C@H]1C (stereo partly drawn); inactive
CCOC(=O)OC(C)OC(=O)C1N2C(=O)C(NC(=O)[C@H](N)c3ccccc3)C2SC1(C)C (stereo partly drawn); inactive
Cc1cc(O)cc(=O)o1; inactive
C#C[C@]1(OC(C)=O)CCC2C3CCC4=CC(=O)CC[C@@H]4C3CC[C@@]21C (stereo partly drawn); inactive

Write down the call the test reported for this compound. Item: O=C1c2c(O)cccc2Cc2cccc(O)c21
inactive
